- tested target: T1, human TREM2 (human) (UniProt Q9NZC2)
- T1 sequence (looked up): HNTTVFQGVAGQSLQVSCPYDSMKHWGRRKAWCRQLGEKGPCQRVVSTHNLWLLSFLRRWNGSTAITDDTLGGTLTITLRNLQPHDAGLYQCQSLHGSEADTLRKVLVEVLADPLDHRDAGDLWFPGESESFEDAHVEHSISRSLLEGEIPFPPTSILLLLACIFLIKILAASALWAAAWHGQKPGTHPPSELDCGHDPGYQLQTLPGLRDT
- assay name: 2nd screen, 100 nM Ab
measurement label: Binding Signal (fold over 6E7 parental antibody) (fold)
Number in fold, nothing else.

>  <binder>
6E7 variant V93 (antibody, V domains shown) VH: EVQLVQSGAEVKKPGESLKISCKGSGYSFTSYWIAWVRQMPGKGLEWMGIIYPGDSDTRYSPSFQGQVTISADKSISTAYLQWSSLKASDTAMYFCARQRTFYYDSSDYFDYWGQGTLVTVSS VL: DIQMTQSPSSVSASVGDRVTITCRASQGISGWLAWYQQKPGKAPKLLIYAASSLQNGVPSRFSGSGSGTDFTLTISSLQPEDFATYFCQQADSFPRTFGQGTKLEIK

>  <measured result>
1.05

$$$$
>  <binder>
6E7 variant V47 (antibody, V domains shown) VH: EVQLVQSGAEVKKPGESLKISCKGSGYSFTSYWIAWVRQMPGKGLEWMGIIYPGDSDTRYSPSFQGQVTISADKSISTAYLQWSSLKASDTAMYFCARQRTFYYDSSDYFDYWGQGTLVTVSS VL: DIQMTQSPSSVSASVGDRVTITCRASQGISSWLAWYQQKPGKAPKLLIYAASSLQNGVPSRFSGSGSGTDFTLTISSLQPEDFATYFCQQADSFPMTFGQGTKLEIK

>  <measured result>
0.47

$$$$

Next item in the queue.
Any idea what Binding Signal (fold over 6E7 parental antibody) was measured for 6E7 variant V46 (antibody, V domains shown) VH: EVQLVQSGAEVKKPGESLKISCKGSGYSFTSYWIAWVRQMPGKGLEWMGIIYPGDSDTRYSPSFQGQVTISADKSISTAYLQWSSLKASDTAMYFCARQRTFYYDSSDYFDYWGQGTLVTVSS VL: DIQMTQSPSSVSASVGDRVTITCRASQGISSWLAWYQQKPGKAPKLLIYAASTLQNGVPSRFSGSGSGTDFTLTISSLQPEDFATYFCQQADSFPRTFGQGTKLEIK ?
0.96

These entries and their values trace back to patent US20260250381A1.
